# credit: PubChem BioAssay AID1851

# Measurement target: Cytochrome P450 2C19 (Homo sapiens)
# Test description: Cytochrome panel assay with activity outcomes
# Applied conditions: recombinant CYP, pro-luciferin dealkylation, luminescence, p450-cyp2c19; series mostly up to 57.1 µM
# Method: The P450 gene superfamily is involved in the metabolism and clearance of xenobiotics. This assay used various human CYP P450 isozymes to measure the dealkylation of various pro-luciferin substrates to luciferin. The luciferin is then measured by luminescence after the addition of a luciferase detection reagent. […] Inhibitors and some substrates limit the production of luciferin, and decrease measured luminescence. […] 8, Detection, 1 sec, ViewLux luminescent read […]
Hit rate of the full screen: of about 16,000 compounds, about 5,800 (36%) were called active. Roughly 23% stayed inconclusive and do not appear here. The list shows a part of the results.
Measurement label: AC50

                                         smi  measurement_label        test_result
 0  COc1ccccc1N1CCN(C[C@@H](C(=O)NC(C)(C)C)c2ccccc2)CC1               AC50           inactive
 1  CCc1ccc(OCC(=O)NC(=S)Nc2ccc(F)cc2)c(Br)c1               AC50   8.91 µM (active)
 2      C=C(CC)C(=O)c1ccc(OCC(=O)O)c(Cl)c1Cl               AC50           inactive
 3              O=C(CSc1nc2ccccc2s1)Nc1nccs1               AC50   1.58 µM (active)
 4    Cc1ccccc1OCC(=O)NC(=S)Nc1ccc(Br)c(C)n1               AC50           inactive
 5              O=C(CSCc1ccc(Cl)cc1)Nc1nccs1               AC50   2.51 µM (active)
 6  Cc1ccc(S(=O)(=O)NC(=O)CSc2nc3ccccc3s2)cc1               AC50           inactive
 7  CCC(=O)NC(=S)Nc1ccc(NC(=O)COc2ccc(Cl)cc2Cl)cc1               AC50   2.82 µM (active)
 8  O=C(CSc1nc2ccccc2s1)NNC(=S)Nc1ccc(Br)cc1               AC50   2.82 µM (active)
 9  O=C(COc1ccccc1Cl)NC(=S)Nc1cccc(NC(=O)c2ccccc2Cl)c1               AC50  0.631 µM (active)
10  O=C(CSc1nc(-c2ccccc2)nc2ccccc12)Nc1nccs1               AC50           inactive
